# TARGET_DESC: Aβ1-40 (Homo sapiens)
# Construct: 20 μM of solubilized Aβ40
# Sequence (P05067 672-711 limits assumed): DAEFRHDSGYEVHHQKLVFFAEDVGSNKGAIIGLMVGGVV
# ASSAY_METHOD_TEXT: Mass spectroscopy (MS) binding assay
# Parameters: key: “+++” indicates strong binding; “++” indicates moderate binding; “+” indicates weak binding; “−” indicates no detectable binding
# EXPERIMENTAL_CONDITIONS: 200 μM test compound, 20 μM solubilized Aβ40, 20% ethanol, pH 7.4

[
  {
    "COMPOUND": "O=C(NCC(O)CS(=O)(=O)[O-])OCc1ccccc1.[Na+] (centres unmarked)",
    "MS Binding Aβ1-40": "+"
  },
  {
    "COMPOUND": "CC(C)(C)NCCCS(=O)(=O)O",
    "MS Binding Aβ1-40": "+++"
  },
  {
    "COMPOUND": "CCCC(CO)NCCCS(=O)(=O)O (racemic)",
    "MS Binding Aβ1-40": "+++"
  },
  {
    "COMPOUND": "O=S(=O)(O)CCCNCCc1c[nH]c2ccccc12",
    "MS Binding Aβ1-40": "+++"
  },
  {
    "COMPOUND": "O=S(=O)(O)CCCNC1CC2CCC1C2 (centres unmarked)",
    "MS Binding Aβ1-40": "+++"
  },
  {
    "COMPOUND": "O=C(Cc1ccccc1)NCCCS(=O)(=O)[O-].[Na+]",
    "MS Binding Aβ1-40": "+"
  },
  {
    "COMPOUND": "O=S(=O)(O)CCCNC12CC3CC(CC(C3)C1)C2",
    "MS Binding Aβ1-40": "+++"
  },
  {
    "COMPOUND": "N=C(N)SCCCS(=O)(=O)O",
    "MS Binding Aβ1-40": "+"
  },
  {
    "COMPOUND": "O=C(NCCCCS(=O)(=O)[O-])OCc1ccccc1.[Na+]",
    "MS Binding Aβ1-40": "+"
  },
  {
    "COMPOUND": "CC(C)Cc1ccc(C(C)C(=O)NCCCS(=O)(=O)[O-])cc1.[Na+] (centres unmarked)",
    "MS Binding Aβ1-40": "++"
  },
  {
    "COMPOUND": "O=C(NCCCS(=O)(=O)[O-])NCc1ccccc1.[Na+]",
    "MS Binding Aβ1-40": "+"
  }
]
